# System: panel of melanoma cell lines
# MEASUREMENT PROTOCOL: Cell viability in a panel of melanoma cell lines
# Type: cell-based
# PARTICULARS: melanoma cell lines incl. BRAF V600E and NRAS Q61L mutations; read-out: IC50 across melanoma panel
EXPERIMENTAL ENDPOINT: IC50

Look at this compound and give its reported IC50. Cc1cc2nc(/C=C/c3cccnc3)sc2cc1C 18 to 90 nM

###

# Test system: M409
# MEASUREMENT PROTOCOL: CellTiter-Glo cell viability, M409
# Format: cell-based
EXPERIMENTAL ENDPOINT: IC50
Write down the value, and be sure its unit follows.

Short answer please: IC50, M409, entry Cc1cc2nc(/C=C/c3cccnc3)sc2cc1C 41.9 nM

###

# System: M238
# MEASUREMENT PROTOCOL: CellTiter-Glo cell viability, M238
# Format: cell-based
EXPERIMENTAL ENDPOINT: IC50 (nM)
# output: bare number, implied unit nM

Given the entry Cc1cc2nc(/C=C/c3cccnc3)sc2cc1C [MI-181] , report its measured IC50. 30.5

###

# Tested on: diverse panel of cancer cell lines
# MEASUREMENT PROTOCOL: Cell viability in a diverse panel of cancer cell lines
# Format: cell-based
# PARTICULARS: HeLa, M233, U205, CCRF-CEM, NCI-H460; MCF7 excepted; read-out: cell viability IC50 across most cancer cell lines
EXPERIMENTAL ENDPOINT: IC50

Endpoint output: IC50 of Cc1cc2nc(/C=C/c3cccnc3)sc2cc1C . Value? 30 to 360 nM

###

# Tested on: breast adenocarcinoma (MCF7)
# MEASUREMENT PROTOCOL: Cell viability, MCF7
# Assay type: cell-based
# PARTICULARS: Homo sapiens; MCF7 cells
EXPERIMENTAL ENDPOINT: pIC50
The scale used: pIC50 is minus the common logarithm of the concentration in molar units.

I have this compound here, Cc1cc2nc(/C=C/c3cccnc3)sc2cc1C [MI-181] , and I need its recorded pIC50. 4.96

###

# Tested on: M243
# MEASUREMENT PROTOCOL: CellTiter-Glo cell viability, M243
# Type: cell-based
EXPERIMENTAL ENDPOINT: pIC50
Keep it numeric: pIC50 is minus log10 of the concentration in mol/L.

Can you share its pIC50? I mean this compound: Cc1cc2nc(/C=C/c3cccnc3)sc2cc1C 7.59

Values compiled from patent US10913750B2.
